Where do the numbers come from? From the supplement of paper PMC9844399.

test system: HeLa; experiment: MALAT1 nuclear FISH intensity, robust Z-score vs DMSO; higher = more nuclear MALAT1 lncRNA, active = -3 or less; details: 10 µM; 6 h
Counter-ions that a name gives are not always drawn.
Here, each record is paired with measured MALAT1 nuclear FISH intensity data.
Kindly provide the number alone.

Answered cases to consult:
COc1ccc(CCN(C)CCc2ccc(OC)c(OC)c2)cc1OC: -1.15
Nc1ccc2c3c(cccc13)C(=O)NC2=O [4-Amino-1,8-naphthalimide]: -1.23
CC(=O)Nc1c(I)c(NC(C)=O)c(I)c(C(=O)O)c1I [Diatrizoate Meglumine]: -1.47
CC(C)C[C@H](NC(=O)[C@@H](COC(C)(C)C)NC(=O)[C@H](Cc1ccc(O)cc1)NC(=O)[C@H](CO)NC(=O)[C@H](Cc1c[nH]c2ccccc12)NC(=O)[C@H](Cc1cnc[nH]1)NC(=O)[C@@H]1CCC(=O)N1)C(=O)N[C@@H](CCCNC(=N)N)C(=O)N1CCC[C@H]1C(=O)NNC(N)=O [Goserelin Acetate]: 0.613
O=C(O)c1cn(C2CC2)c2cc(N3CCNCC3)c(F)cc2c1=O: 0.579

What value of measured MALAT1 nuclear FISH intensity is listed for O=C1C(SCCO)=C(SCCO)C(=O)c2ccccc21 ?
5.55

What value of measured MALAT1 nuclear FISH intensity is listed for CCCCC[C@H](O)/C=C/C1=C(CCCCCCC(=O)O)C(=O)CC1 ?
-0.084

What value of measured MALAT1 nuclear FISH intensity is listed for CN(C)CCCOc1nn(Cc2ccccc2)c2ccccc12 [Benzydamine hydrochloride] ?
-0.28

---

Here, each record is paired with measured nuclear count per well data.
system: HeLa; assay: nuclear count per well, robust Z-score vs DMSO; higher = more cells (less toxicity); details: 10 µM; 6 h
Counter-ions that a name gives are not always drawn.

O=C(O)CCCCC(=O)O [Adipic acid]: -0.243
Cc1cn(-c2cc(NC(=O)c3ccc(C)c(Nc4nccc(-c5cccnc5)n4)c3)cc(C(F)(F)F)c2)cn1 [Nilotinib]: -0.24
CC(C)(Oc1ccc(C2CC2(Cl)Cl)cc1)C(=O)O (configuration not stated) [Ciprofibrate]: -0.743

Form field: nuclear count per well recorded for CC1(C2CCCC2)Cc2cc(OCC(=O)O)c(Cl)c(Cl)c2C1=O (configuration not stated) with HeLa (enter value)
0.358

Form field: nuclear count per well recorded for CC1(C)O[C@@H]2C[C@H]3[C@@H]4C[C@H](F)C5=CC(=O)CC[C@]5(C)[C@H]4[C@@H](O)C[C@]3(C)[C@]2(C(=O)CO)O1 [Flurandrenolide] with HeLa (enter value)
-0.309

Form field: nuclear count per well recorded for COc1cc2ncnc(Nc3ccc(F)c(Cl)c3)c2cc1OCCCN1CCOCC1 [Gefitinib] with HeLa (enter value)
-1.31

Form field: nuclear count per well recorded for C[C@@H](O)[C@H]1C(=O)N2C(C(=O)O)=C(SCCNC=N)C[C@H]12 [Imipenem] with HeLa (enter value)
0.11

Form field: nuclear count per well recorded for CN1CCC(=C2c3ccccc3CC(=O)c3sccc32)CC1 [Ketotifen Fumarate] with HeLa (enter value)
-0.314

Form field: nuclear count per well recorded for CCCCCCCCCCCCC/C=C/[C@@H](O)[C@H](CO)N(C)C [N,N-Dimethylsphingosine] with HeLa (enter value)
-0.832

Form field: nuclear count per well recorded for CCOC(=O)C1=C[C@]2(CC)CCCN3CCc4c(n1c1ccccc41)[C@@H]32 [Vinpocetine] with HeLa (enter value)
-0.435

Form field: nuclear count per well recorded for Nc1ncnc2c1c(I)cn2[C@@H]1O[C@H](CO)[C@@H](O)[C@H]1O [5-Iodotubercidin] with HeLa (enter value)
-7.72

Form field: nuclear count per well recorded for CC[C@@H]([C@H](C)O)n1ncn(-c2ccc(N3CCN(c4ccc(OC[C@@H]5CO[C@@](Cn6cncn6)(c6ccc(F)cc6F)C5)cc4)CC3)cc2)c1=O [Posaconazole] with HeLa (enter value)
-0.000264
